MEASUREMENT_DESCRIPTION: Pharmacokinetic experiment on rats: brain entry ratio (brain tissue/plasma concentration ratio)
Format: in vivo
EXPERIMENTAL_SETUP: rat, male SD rats, po 10 mg/kg, Table 7
Would you mind telling me the reported Kp at 0.5 h of each entry?
Answers are plain numbers.

Please review the following examples before continuing.
| COMPOUND | MEASURED_PARAMETER | MEASURED |
| --- | --- | --- |
| COc1cc2nnc(-c3cc(C)on3)n2nc1OCc1ccc(OC2CCOC2)nn1 (centres unmarked) [Embodiment 154] | Kp at 0.5 h | 0.0257 |
| COc1cc2nnc(-c3cc(C)on3)n2nc1OCc1ccc2c(n1)CN(C1CCOCC1)C2 [Embodiment 253] | Kp at 0.5 h | 0.0133 |
| COc1cc2nnc(-c3cc(C)on3)n2nc1OCc1ccc2nc(C#N)cn2n1 [Embodiment 211] | Kp at 0.5 h | 0.018 |
| COc1cc2nnc(-c3cc(C)on3)n2nc1OCc1ccc(OC2COC2)nn1 [Embodiment 153] | Kp at 0.5 h | 0.02 |
| COCCCOc1ccc(COc2nn3c(-c4noc(C)n4)nnc3cc2OC)nn1 [Embodiment 129] | Kp at 0.5 h | 0.047 |

# batch: return Kp at 0.5 h for each of the 3 compounds below
1. COc1cc2nnc(-c3cc(C)on3)n2nc1OCc1ccc2c(n1)CN(C)C2 [Embodiment 160]
2. COCc1ccc(COc2nn3c(-c4cc(C)on4)nnc3cc2OC)nn1 [Embodiment 151]
3. COc1cc2nnc(-c3cc(C)on3)n2nc1OCc1ccc2c(n1)CCN(Cc1cc(C)on1)C2 [Embodiment 187]

1. 0.0441
2. 0.02
3. 0.0293

====

MEASUREMENT_DESCRIPTION: Pharmacokinetic experiment on rats: brain entry ratio (brain tissue/plasma concentration ratio)
Assay type: in vivo
EXPERIMENTAL_SETUP: rat, male SD rats, po 10 mg/kg, Table 7
Values of Kp at 0.5 h greater than or equal to 0.01 map to YES; values below map to NO.

| MOLECULE | GROUP_LABEL |
| --- | --- |
| COc1cc2nnc(-c3cc(C)on3)n2nc1OCc1ccc2c(n1)CCN(C1CCOC1)C2 (centres unmarked) | YES |
| COc1cc2nnc(-c3cc(C)on3)n2nc1OCc1ccc(OC2CCOCC2)nn1 | YES |
| COc1cc2nnc(-c3cc(C)on3)n2nc1OCc1ccc2c(n1)CCN(C1CCOCC1)C2 | YES |
| COc1cc2nnc(-c3cc(C)on3)n2nc1OCc1ccc(C2(F)CN(C3COC3)C2)cn1 | YES |
| COc1cc2nnc(-c3cc(C)on3)n2nc1OCc1ccc2c(n1)CCN(C1COC1)C2 | NO |
| COCc1cn2nc(COc3nn4c(-c5cc(C)on5)nnc4cc3OC)ccc2n1 | YES |

Is reported Kp at 0.5 h greater than or equal to 0.01 here: `COc1cc2nnc(-c3cc(C)on3)n2nc1OCc1ccc2c(n1)CCN(C(CO)CO)C2`
NO

====

Would you mind telling me the reported inhibition at 0.1 µM of each entry?
TARGET_SYSTEM: α5-GABAA receptor (Homo sapiens, UniProt P18507+P31644)
Construct: expressed in transfected cells; host or cells: HEK293, monoclonal stably transfected line
Sequence (P31644 32-462): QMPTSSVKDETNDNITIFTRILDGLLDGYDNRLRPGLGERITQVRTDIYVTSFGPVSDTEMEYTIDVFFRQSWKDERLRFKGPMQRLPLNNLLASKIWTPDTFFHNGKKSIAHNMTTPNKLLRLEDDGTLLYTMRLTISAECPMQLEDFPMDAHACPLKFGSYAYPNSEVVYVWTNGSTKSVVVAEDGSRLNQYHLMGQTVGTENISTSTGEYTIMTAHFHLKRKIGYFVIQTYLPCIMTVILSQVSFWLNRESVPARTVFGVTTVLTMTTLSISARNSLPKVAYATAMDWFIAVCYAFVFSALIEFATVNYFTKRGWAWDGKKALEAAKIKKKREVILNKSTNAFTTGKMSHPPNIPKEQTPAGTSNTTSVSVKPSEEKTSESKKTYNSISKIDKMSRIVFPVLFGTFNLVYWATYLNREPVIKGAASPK
Sequence (P28472 26-473 partner): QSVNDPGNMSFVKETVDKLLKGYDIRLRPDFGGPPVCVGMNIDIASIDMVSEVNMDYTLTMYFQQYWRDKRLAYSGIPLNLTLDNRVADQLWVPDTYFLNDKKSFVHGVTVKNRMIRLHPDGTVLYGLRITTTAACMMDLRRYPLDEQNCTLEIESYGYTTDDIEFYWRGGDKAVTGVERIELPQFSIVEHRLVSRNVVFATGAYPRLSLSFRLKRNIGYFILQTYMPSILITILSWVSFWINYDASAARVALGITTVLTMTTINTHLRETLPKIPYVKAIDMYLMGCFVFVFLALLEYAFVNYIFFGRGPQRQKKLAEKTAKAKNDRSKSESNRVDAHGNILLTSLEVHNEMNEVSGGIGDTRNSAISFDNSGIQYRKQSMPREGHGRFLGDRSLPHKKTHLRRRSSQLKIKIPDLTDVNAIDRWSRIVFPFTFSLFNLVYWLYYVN
Sequence (P18507 40-467 isoform P18507-1 limits assumed): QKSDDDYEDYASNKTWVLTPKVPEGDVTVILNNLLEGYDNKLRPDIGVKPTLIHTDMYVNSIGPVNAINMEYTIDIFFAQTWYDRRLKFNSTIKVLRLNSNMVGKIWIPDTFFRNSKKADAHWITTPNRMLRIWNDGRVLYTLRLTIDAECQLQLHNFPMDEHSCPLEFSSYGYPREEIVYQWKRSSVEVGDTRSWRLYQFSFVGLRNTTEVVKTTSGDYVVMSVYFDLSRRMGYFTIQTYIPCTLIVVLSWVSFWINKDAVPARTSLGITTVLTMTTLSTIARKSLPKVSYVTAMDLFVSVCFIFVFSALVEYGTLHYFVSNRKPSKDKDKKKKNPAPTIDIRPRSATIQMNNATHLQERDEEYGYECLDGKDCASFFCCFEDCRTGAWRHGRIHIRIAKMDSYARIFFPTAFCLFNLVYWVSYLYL
MEASUREMENT_DESCRIPTION: Cell-level screening: whole cell patch clamp, inverse agonist efficacy on α5-GABAA receptor expressed in HEK293
Assay type: cell-based
EXPERIMENTAL_SETUP: drug 100 nM, GABA 0.05 μM, HEK293 expressing α5, β3 and γ2 subunits, clamped at −60 mV; read-out: Compound inverse agonist efficacy %
Numbers only, in %.

Please review the following examples before continuing.
| COMPOUND | inhibition at 0.1 µM [%] |
| --- | --- |
| COc1cc2nnc(-c3cc(C)on3)n2nc1OCc1ccc2c(ncn2C)n1 | 63.7 |
| COCCN1Cc2ccc(COc3nn4c(-c5cc(C)on5)nnc4cc3OC)nc2C1 | 33.7 |
| CCn1cccc(COc2nn3c(-c4cc(C)on4)nnc3cc2OC)c1=O | 41.6 |
| COc1cc2nnc(-c3cc(C)on3)n2nc1OCc1cc(OC2COC2)cnn1 | 65.4 |
| COc1cc2nnc(-c3cc(C)on3)n2nc1OCc1ccc2c(n1)CCN(c1ccccc1)C2 | 39.7 |
| COCCCN1CCc2nc(COc3nn4c(-c5cc(C)on5)nnc4cc3OC)ccc2C1=O | 39.3 |
| COc1cc2nnc(-c3cc(C)on3)n2nc1OCc1ccc(OC2CCOC2)nn1 (centres unmarked) | 45.2 |
| COc1cc2nnc(-c3cc(C)on3)n2nc1OCc1ncccc1C#N | 29.4 |
| COc1cc2nnc(-c3cc(C)on3)n2nc1OCc1ccc(C)cn1 | 44.9 |
| COc1cc2nnc(-c3cc(C)on3)n2nc1OCc1cccc(C2CCCNC2)n1 (centres unmarked) | 43.9 |

# batch: return inhibition at 0.1 µM for each of the 7 compounds below
1. COCCCn1ccc2ccc(COc3nn4c(-c5cc(C)on5)nnc4cc3OC)nc21
2. COc1cc2nnc(-c3cc(C)on3)n2nc1OCc1cccc(C2(F)CCNC2)n1 (centres unmarked)
3. COCCOc1ccc(COc2nn3c(-c4cc(C)on4)nnc3cc2OC)nn1
4. COc1cc2nnc(-c3cc(C)on3)n2nc1OCc1ccc2c(n1)CN(CCC#N)C2
5. CCN1Cc2nc(COc3nn4c(-c5cc(C)on5)nnc4cc3OC)ccc2C1=O
6. COc1cc2nnc(-c3cc(C)on3)n2nc1OCc1cnc(OC2CCOCC2)cn1
7. COc1cc2nnc(-c3cc(C)on3)n2nc1OCc1ccc2c(n1)CN(C1COC1)C2

1. 36.5
2. 41.8
3. 41.7
4. 40.2
5. 58
6. 56.5
7. 45.4
